# tested-target: Prostaglandin G/H synthase 2 (Homo sapiens, UniProt P35354)
# Sequence (P35354 whole entry): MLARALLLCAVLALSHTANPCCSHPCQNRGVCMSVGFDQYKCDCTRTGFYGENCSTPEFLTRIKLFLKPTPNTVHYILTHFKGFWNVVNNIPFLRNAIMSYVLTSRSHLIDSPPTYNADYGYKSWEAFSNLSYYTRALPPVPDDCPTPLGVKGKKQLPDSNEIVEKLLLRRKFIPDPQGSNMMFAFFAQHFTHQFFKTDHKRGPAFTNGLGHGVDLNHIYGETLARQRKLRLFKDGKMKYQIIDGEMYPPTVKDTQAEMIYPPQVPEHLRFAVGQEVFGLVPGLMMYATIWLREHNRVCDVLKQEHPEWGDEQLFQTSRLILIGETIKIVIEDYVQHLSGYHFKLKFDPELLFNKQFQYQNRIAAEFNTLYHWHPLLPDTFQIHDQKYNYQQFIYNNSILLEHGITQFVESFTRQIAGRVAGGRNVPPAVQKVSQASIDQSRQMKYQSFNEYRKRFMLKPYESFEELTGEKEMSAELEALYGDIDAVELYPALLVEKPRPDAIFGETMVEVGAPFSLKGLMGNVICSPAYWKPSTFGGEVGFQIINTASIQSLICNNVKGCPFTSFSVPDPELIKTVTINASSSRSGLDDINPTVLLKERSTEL
property-measured: IC50

>>> result("CC1(O)OC(=O)C(c2ccc(O)cc2)=C1c1ccc(S(C)(=O)=O)cc1 (centres undefined)")
"> 33 µM"
>>> result("CC1(O)OC(=O)C(c2cccs2)=C1c1ccc(S(C)(=O)=O)cc1 (centres undefined)")
"> 33 µM"
>>> result("CC1(O)OC(=O)C(Sc2ccccc2)=C1c1ccc(S(C)(=O)=O)cc1 (centres undefined)")
"> 10 µM"

Consider now this further compound.
Ask: For CC1(O)OC(=O)C(Oc2ccc(F)c(F)c2)=C1c1ccc(S(C)(=O)=O)cc1 (centres undefined) , write its IC50.
Result: > 33 µM

Values compiled from ChEMBL document CHEMBL1136665.
